# settings: Crystal; DTA
reported_metric: Normal melting temperature (°C)

Study these solved cases before continuing.
* Nc1ccc(C(=O)/C=C/c2ccc(-c3cccc([N+](=O)[O-])c3)o2)cc1 | 171.00
* O=C(/C=C/c1ccc(-c2cccc([N+](=O)[O-])c2)o1)c1ccco1 | 178.00

A = O=C(/C=C/c1ccc(-c2cccc([N+](=O)[O-])c2)o1)c1ccc([N+](=O)[O-])cc1
B = O=C(/C=C/c1ccc(-c2cccc([N+](=O)[O-])c2)o1)c1ccccc1 [(E)-3-(5-(3-nitrophenyl)furan-2-yl)-1-phenylprop-2-en-1-one]
Pick one: A or B . Which has the bigger Normal melting temperature number? Please reply using the label of the selected record. A
(A: 218.00 °C, B: 142.00 °C)
